- System: A549-ACTB-RAB5A
- assay: phenotypically active (imaging signature differs from DMSO and reproducible) at any of 0.3-9 uM (binary (1 = active, 0 = inactive)); higher = active
- conditionDetails: treatment time: 24 h
Where a name gives a salt, the structure may show the parent alone.
Below: a set of entries, each annotated with reported phenotypically active.
reportedEndpoint: phenotypically active

> print(dat)
                                    molecule  recordedvalue
 1  NCC(=O)Nc1ccc(-n2nc(C(F)(F)F)cc2-c2ccc3c(ccc4ccccc43)c2)cc1              1
 2  CC(CCc1ccc(O)cc1)NCCc1ccc(O)c(O)c1 (centres undefined) [Dobutamine hydrochloride]              0
 3  COc1ccc2cc1Oc1ccc(cc1)C[C@H]1c3cc(c(OC)cc3CCN1C)Oc1c(OC)c(OC)cc3c1[C@H](C2)N(C)CC3 [Tetrandrine]              1
 4  CCCCCN(C)CCC(O)(P(=O)(O)O)P(=O)(O)O [ibandronate]              0
 5      CC(Oc1ccc(O)cc1)(P(=O)(O)O)P(=O)(O)O              0
 6  CN(C)CCOC(c1ccccc1)c1ccccc1 [diphenhydramine]              0
 7  O=C1NCCCC1C(=O)NCCc1c[nH]c2ccc(O)cc12 (centres undefined)              0
 8  COc1ccccc1S(=O)(=O)Nc1ccc2c(c1)CN(C)C(=O)N2              1
 9  O=C(NOC[C@H](O)CO)c1ccc(F)c(F)c1Nc1ccc(I)cc1F              1
10  CN1CC[C@H](c2c(O)cc(O)c3c(=O)cc(-c4ccccc4Cl)oc23)[C@H](O)C1 [Flavopiridol hydrochloride]              1
11  O=C(O)[C@H](O)[C@@H](O)[C@H](O[C@@H]1O[C@H](CO)[C@H](O)[C@H](O)[C@H]1O)[C@H](O)CO [Lactobionic acid]              0
12  CN1CCN(c2ccc(OC(F)(F)F)c(Nc3ncc4c(n3)-c3c(c(C(N)=O)nn3CCO)CC4)c2)CC1              1
13  CCCCCCCCCCCCC/C=C/[C@H](O)[C@H](N)CO [D-erythro-Sphingosine (synthetic)]              0
14  CCN1C(=O)NC(c2ccccc2)C1=O (centres undefined) [ethotoin]              0

----------
- System: A549-TP53BP1-CLTA
- assay: phenotypically active (imaging signature differs from DMSO and reproducible) at any of 0.3-9 uM (binary (1 = active, 0 = inactive)); higher = active
- conditionDetails: treatment time: 24 h
Structures can show the parent of a compound that is named as a salt.
reportedEndpoint: phenotypically active

molecule	reportedEndpoint	recordedValue
CN1C(=O)CC[C@H]1c1cccnc1 [(-)-Cotinine]	phenotypically active	0
CCOCCn1c(N2CCCN(C)CC2)nc2ccccc21 [emedastine]	phenotypically active	0
CC1(COc2ccc(CC3SC(=O)NC3=O)cc2)CCCCC1 (stereo unspecified) [Ciglitazone]	phenotypically active	0
COc1ccc(S(=O)(=O)ON=C2C=C(C)C(=O)C(C)=C2)cc1	phenotypically active	0
CN(C)CC(=O)N1CCC[C@@H](n2nc(-c3ccc(Oc4ccccc4)cc3)c3c(N)ncnc32)C1	phenotypically active	1
CO/N=C/C1=CCCN(C)C1 [Milameline hydrochloride]	phenotypically active	0
Oc1cccc(Nc2ccnc3cc(-c4cccc(CN5CCOCC5)c4)sc23)c1 [LCB 03-0110 dihydrochloride]	phenotypically active	1
COc1ccc([C@@H]2CC(=O)c3c(O)cc(O[C@@H]4O[C@H](CO[C@@H]5O[C@@H](C)[C@H](O)[C@@H](O)[C@H]5O)[C@@H](O)[C@H](O)[C@H]4O)cc3O2)cc1O [Hesperidin]	phenotypically active	0
OCc1cc(C(O)CNCCCCCCOCCCCc2ccccc2)ccc1O (stereo unspecified) [salmeterol]	phenotypically active	0
C[C@H](NCCc1ccc(O)cc1)[C@H](O)c1ccc(O)cc1 [ritodrine]	phenotypically active	0
c1ccc(-c2n[nH]cc2-c2ccnc3ccccc23)nc1	phenotypically active	0
CC(C)(C(=O)c1cccnc1)c1cccnc1 [metyrapone]	phenotypically active	0
COc1ccc(-c2ccc3cc(C(=O)O)ccc3c2)cc1C12CC3CC(CC(C3)C1)C2 [Adapalene]	phenotypically active	0
COc1ccc(C[C@H](N)C(=O)N[C@H]2[C@@H](O)[C@H](n3cnc4c(N(C)C)ncnc43)O[C@@H]2CO)cc1 [Puromycin dihydrochloride]	phenotypically active	1
O=S(=O)(NCCSSCCNS(=O)(=O)c1cc(Cl)ccc1Cl)c1cc(Cl)ccc1Cl	phenotypically active	0
COC(=O)C1=CO[C@@H](C)[C@H]2CN3CCc4c([nH]c5ccccc45)[C@@H]3C[C@H]12 [Ajmalicine hydrochloride]	phenotypically active	0
CC(c1cc2ccccc2s1)N(O)C(N)=O (stereo unspecified) [zileuton]	phenotypically active	0
C[C@@H](Oc1cc(-c2cnn(C3CCNCC3)c2)cnc1N)c1c(Cl)ccc(F)c1Cl [Crizotinib]	phenotypically active	1
O=C(O)c1ccc(Nc2ncc3c(n2)-c2ccc(Cl)cc2C(c2c(F)cccc2F)=NC3)cc1	phenotypically active	1
CC(C)[N@+]1(C)[C@@H]2CC[C@H]1C[C@@H](OC(=O)C(CO)c1ccccc1)C2 (stereo partly specified) [ipratropium]	phenotypically active	0
COc1ccc(-c2cc(=O)c3c(O)cc(O)cc3o2)cc1O [Diosmetin]	phenotypically active	0

----------
- Test system: WPMY1-TUBA1B-RELA
- assay: lowest phenotypically active concentration; higher = less potent
- conditionDetails: treatment time: 24 h
Where a name gives a salt, the structure may show the parent alone.
Overview of reported lowest phenotypically active concentration across a group of compounds:
reportedEndpoint: lowest phenotypically active concentration (µM)

> print(dat)
                                    compound        studytarget  operatorsymbol  recordedvalue
 1  Clc1ccc(C2(c3ccc(-c4cn[nH]c4)cc3)CCNCC2)cc1  WPMY1-TUBA1B-RELA               ≤            0.3
 2  CON(C)C(=O)N1N=C(c2cc(F)ccc2F)S[C@@]1(CCCN)c1ccccc1 [ARRY 520 trifluoroacetate]  WPMY1-TUBA1B-RELA               ≤            0.3
 3          CN(C)CCCN1c2ccccc2Sc2ccc(Cl)cc21  WPMY1-TUBA1B-RELA               =              9
 4                CNCCCN1c2ccccc2CCc2ccccc21  WPMY1-TUBA1B-RELA               =              9
 5  Cc1ncc(-c2ccnc(Nc3ccc(S(C)(=O)=O)cc3)n2)n1C(C)C  WPMY1-TUBA1B-RELA               ≤            0.3
 6          O=C(/C=C/c1ccc2ccccc2n1)c1ccncc1  WPMY1-TUBA1B-RELA               =              9
 7       COc1cc(/C=C/c2ccc(OC)cc2OC)cc(OC)c1  WPMY1-TUBA1B-RELA               =              1
 8  Cc1cc(Nc2ccc(NC(=O)c3ccc(Nc4ccnc5ccccc45)cc3)cc2)nc(N)n1  WPMY1-TUBA1B-RELA               =              3
 9          CC(=O)Nc1ccc(C(=O)Nc2ccccc2N)cc1  WPMY1-TUBA1B-RELA               =              9
10   COc1cc(/C=C/C(=O)N2CCC=CC2=O)cc(OC)c1OC  WPMY1-TUBA1B-RELA               =              9
11  Cc1nc(Nc2ncc(C(=O)Nc3c(C)cccc3Cl)s2)cc(N2CCN(CCO)CC2)n1  WPMY1-TUBA1B-RELA               ≤            0.3
12  COc1ccc(-c2cnc(-c3cccc4c3-c3ccccc3C4=O)o2)cc1  WPMY1-TUBA1B-RELA               ≤            0.3

----------
Readings of phenotypically active for the listed compounds
- Test system: A549-TP53BP1-CLTA
- assay: phenotypically active (imaging signature differs from DMSO and reproducible) at any of 0.3-9 uM (binary (1 = active, 0 = inactive)); higher = active
- conditionDetails: treatment time: 24 h
Counter-ions that a name gives are not always drawn.
reportedEndpoint: phenotypically active

> print(dat)
                                    compound  recordedvalue
 1  N[C@@H](Cc1ccc(O)c(O)c1)C(=O)O [levodopa]   0 (inactive)
 2          CC(=O)Nc1ccc(C(=O)Nc2ccccc2N)cc1     1 (active)
 3  CC(C)[N+](C)(CCOC(=O)C1c2ccccc2Oc2ccccc21)C(C)C [propantheline]   0 (inactive)
 4  CN1CC(=O)N2[C@H](c3ccc4c(c3)OCO4)c3[nH]c4ccccc4c3C[C@@H]2C1=O [tadalafil]   0 (inactive)
 5  Nc1ccn([C@@H]2O[C@H](CO)[C@@H](O)[C@@H]2O)c(=O)n1 [cytarabine]     1 (active)
 6    CCCN[C@H]1CCc2nc(N)sc2C1 [pramipexole]   0 (inactive)
 7  C#C[C@]1(O)CC[C@H]2[C@@H]3CCC4=Cc5oncc5C[C@]4(C)[C@H]3CC[C@@]21C [danazol]   0 (inactive)
 8          c1ccc(CC2=NCCN2)cc1 [tolazoline]   0 (inactive)
 9  COC(=O)C1=C(C)NC(C)=C(C(=O)OC)C1c1ccccc1[N+](=O)[O-] [nifedipine]   0 (inactive)
10  CCCCCCC(=O)OC1CC(C)(C)NC(C)(C)C1 [TMPH hydrochloride]   0 (inactive)
11         Nc1ccc(O)c(C(=O)O)c1 [mesalazine]   0 (inactive)
12  NC(=O)[C@@H](CCC(F)(F)F)N(Cc1ccc(-c2ncon2)cc1F)S(=O)(=O)c1ccc(Cl)cc1 [avagacestat]   0 (inactive)
13        Nc1nc(S)c2[nH]cnc2n1 [thioguanine]     1 (active)
14  CC(C)NCC(O)c1ccc(O)c(O)c1 (centres undefined) [Isoproterenol hydrochloride]   0 (inactive)
